setup.conditions: 333 K; 101.33 kPa; Liquid; Pycnometric method
readout.label: mass density (kg/m3)
The reply should be a number in kg/m3, with the unit left off.

Data point: CCCCC[N+](CC)(CC)CC.O=S(=O)([N-]S(=O)(=O)C(F)(F)F)C(F)(F)F [triethylpentylammonium bis(trifluoromethylsulfonyl)imide] ; mass density = 1293.1

Consider CCCCCC[N+](CC)(CC)CC.O=S(=O)([N-]S(=O)(=O)C(F)(F)F)C(F)(F)F [triethylhexylammonium bis((trifluoromethyl)sulfonyl)imide] . Its measured mass density is 1262.5

The compound listed as CCCCCCCC[N+](CC)(CC)CC.O=S(=O)([N-]S(=O)(=O)C(F)(F)F)C(F)(F)F [triethyloctylammonium bis[(trifluoromethyl)sulfonyl]imide] shows mass density equal to 1223.2

Measured mass density of CCCCCCCCCCCC[N+](CC)(CC)CC.O=S(=O)([N-]S(=O)(=O)C(F)(F)F)C(F)(F)F : 1164.2
